B1: ZER1 (parent)
chain: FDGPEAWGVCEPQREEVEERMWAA

Variants of: B1
Experiment Summary: protein stability index of a GFP-peptide fusion (GPS, HEK-293T) (PSI 1-6); higher = more stable;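 note: lentivirally expressed fusions sorted by FACS into six bins by GFP to DsRed ratio, PSI derived from sequencing read proportions per bin multiplied by bin number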
Experimental Parameters: c terminus: a fixed tail appended
Endpoint Label: protein stability index

- V9C: 2.03
- A6L: 1.56
- W22C: 3.17
- C10R: 2.6
- E11P: 2.64
- R14C: 2.25
- G3D: 2.56
- F1M: 3.3
- V17C: 2.3
- W22H: 2.62
- F1E: 4.99
- P4E: 4.48
- F1R: 4.45
- D2F: 1.68
- A6R: 3.35
- Q13W: 2.17
- E5D: 2.99
- C10E: 3.93
- M21P: 2.47
- V17W: 2.44
- R20A: 3.1
- E18C: 2
